Source listed as PubChem BioAssay.

# Test protocol: GLP1 release stimulators, primary, NCI-H716, NPC library (AID 1117341); note: reference of the scale not given here
# Condition label: NCI-H716 cells, at 10 µM, stronger effect = higher value
Active and inactive are the calls of the source.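 Rule for the calls: active = compound raises GLP1 secretion from the human gut endocrine cells, with no numeric limit stated; inactive = the rest.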
Metric name: GLP1 secretion stimulation

Query string: Tell me GLP1 secretion stimulation reported for `OCCOCCN1CCN(C2=Nc3ccccc3Sc3ccccc32)CC1`
Result string: 2.3% (inactive)

Query string: Tell me GLP1 secretion stimulation reported for `NC(N)=NC(=O)Cc1c(Cl)cccc1Cl`
Result string: -3% (inactive)

Query string: Tell me GLP1 secretion stimulation reported for `CC(=O)NS(=O)(=O)c1ccc(N)cc1`
Result string: -1.7% (inactive)

Query string: Tell me GLP1 secretion stimulation reported for `COC(=O)Nc1nc2ccc(C(=O)c3cccs3)cc2[nH]1`
Result string: -3.1% (inactive)

Query string: Tell me GLP1 secretion stimulation reported for `O=C(O)c1cn(-c2ccc(F)cc2)c2cc(N3CCNCC3)c(F)cc2c1=O`
Result string: -2.6% (inactive)

Query string: Tell me GLP1 secretion stimulation reported for `O=C(O)CCC(=O)c1ccc(-c2ccccc2)cc1`
Result string: 0.1% (inactive)

Query string: Tell me GLP1 secretion stimulation reported for `O=C(Nc1ccc([N+](=O)[O-])cc1Cl)c1cc(Cl)ccc1O`
Result string: 3.3% (inactive)

Query string: Tell me GLP1 secretion stimulation reported for `CN1C(C(=O)Nc2ccccn2)=C(O)c2sccc2S1(=O)=O`
Result string: 0.4% (inactive)

Query string: Tell me GLP1 secretion stimulation reported for `Cc1nc(-c2ccc(OCC(C)C)c(C#N)c2)sc1C(=O)O`
Result string: 4.1% (inactive)

Query string: Tell me GLP1 secretion stimulation reported for `C[C@@H]1CC[C@@]2(OC1)O[C@H]1C[C@H]3[C@@H]4CC[C@H]5C[C@@H](O)CC[C@]5(C)[C@H]4CC(=O)[C@]3(C)[C@H]1[C@@H]2C`
Result string: -3.1% (inactive)

Query string: Tell me GLP1 secretion stimulation reported for `COc1ccc(C(=O)CC(=O)c2ccc(C(C)(C)C)cc2)cc1`
Result string: -3.2% (inactive)

Query string: Tell me GLP1 secretion stimulation reported for Nc1c(Br)cc(Br)cc1CNC1CCC(O)CC1 (stereo not given)
Result string: -1.7% (inactive)

Query string: Tell me GLP1 secretion stimulation reported for `CC(=O)N[C@@H](CS)C(=O)O`
Result string: 0.7% (inactive)

Query string: Tell me GLP1 secretion stimulation reported for `CC(C)(Sc1cc(C(C)(C)C)c(O)c(C(C)(C)C)c1)Sc1cc(C(C)(C)C)c(O)c(C(C)(C)C)c1`
Result string: 0.8% (inactive)

Query string: Tell me GLP1 secretion stimulation reported for `O=C1[C@H]2CCCC[C@H]2C(=O)N1CCCCN1CCN(c2nsc3ccccc23)CC1`
Result string: 9% (inactive)

Query string: Tell me GLP1 secretion stimulation reported for `CCOC(=O)C1=C[C@]2(CC)CCCN3CCc4c(n1c1ccccc41)[C@@H]32`
Result string: 2.8% (inactive)

Query string: Tell me GLP1 secretion stimulation reported for `COCCCC/C(=N\OCCN)c1ccc(C(F)(F)F)cc1`
Result string: -1.9% (inactive)

Query string: Tell me GLP1 secretion stimulation reported for C[N+]1(C)[C@@H]2CC(OC(=O)[C@H](CO)c3ccccc3)C[C@H]1[C@@H]1O[C@@H]12 (stereo not given in full)
Result string: -2.3% (inactive)

Query string: Tell me GLP1 secretion stimulation reported for `CC(C)N=C(N)/N=C(\N)Nc1ccc(Cl)cc1`
Result string: 5.1% (inactive)

Query string: Tell me GLP1 secretion stimulation reported for `COCc1c(C(C)C)nc(C(C)C)c(/C=C/[C@@H](O)C[C@@H](O)CC(=O)O)c1-c1ccc(F)cc1`
Result string: 3.1% (inactive)

Query string: Tell me GLP1 secretion stimulation reported for `NC[C@H]1O[C@H](O[C@H]2[C@H](O)[C@@H](O[C@H]3O[C@H](CO)[C@@H](O)[C@H](N)[C@H]3O)[C@H](N)C[C@@H]2N)[C@H](N)[C@@H](O)[C@@H]1O`
Result string: 1.5% (inactive)

Query string: Tell me GLP1 secretion stimulation reported for `Cc1nnc(NS(=O)(=O)c2ccc(N)cc2)s1`
Result string: 2.8% (inactive)

Query string: Tell me GLP1 secretion stimulation reported for `C[N+](C)(C)CCCCCC[N+](C)(C)C`
Result string: -1.6% (inactive)

Query string: Tell me GLP1 secretion stimulation reported for `O=C(O)[C@@H](O)[C@H](O)[C@H](O)[C@@H](O)C(=O)O`
Result string: -1.9% (inactive)

Query string: Tell me GLP1 secretion stimulation reported for `COc1ncnc(NS(=O)(=O)c2ccc(N)cc2)c1OC`
Result string: 8.3% (inactive)

Query string: Tell me GLP1 secretion stimulation reported for `CCCCC1C(=O)N(c2ccccc2)N(c2ccccc2)C1=O`
Result string: -3.3% (inactive)

Query string: Tell me GLP1 secretion stimulation reported for `Nc1ccc(S(=O)(=O)Nc2ccnn2-c2ccccc2)cc1`
Result string: 3.3% (inactive)

Query string: Tell me GLP1 secretion stimulation reported for `CC1=NN(c2ccccc2)C(=O)C1`
Result string: 3.5% (inactive)

Query string: Tell me GLP1 secretion stimulation reported for `Cc1ccsc1C(=CCCN1CCC[C@@H](C(=O)O)C1)c1sccc1C`
Result string: 2.2% (inactive)

Query string: Tell me GLP1 secretion stimulation reported for CCN(CC)CC1CCCCN1CC(=O)N1c2ccccc2C(=O)Nc2cccnc21 (stereo not given)
Result string: 7.7% (inactive)

Query string: Tell me GLP1 secretion stimulation reported for `O=c1c(O)c(-c2ccc(O)c(O)c2)oc2cc(O)cc(O)c12`
Result string: 5.9% (inactive)

Query string: Tell me GLP1 secretion stimulation reported for `CCCc1nc(C)c2c(=O)[nH]c(-c3cc(S(=O)(=O)N4CCN(CC)CC4)ccc3OCC)nn12`
Result string: 0.1% (inactive)

Query string: Tell me GLP1 secretion stimulation reported for `NCCCCCC(=O)O`
Result string: 1.1% (inactive)

Query string: Tell me GLP1 secretion stimulation reported for `C[n+]1cc2c3c(ccc2c2ccc4cc5c(cc4c21)OCO5)OCO3`
Result string: 27.5% (active)

Query string: Tell me GLP1 secretion stimulation reported for `COC(=O)[C@@H](N)CS`
Result string: 4.1% (inactive)

Query string: Tell me GLP1 secretion stimulation reported for `O=C(O)CCCC[C@@H]1SC[C@@H]2NC(=O)N[C@@H]21`
Result string: 1.6% (inactive)

Query string: Tell me GLP1 secretion stimulation reported for `O=C(O)c1ccc(S(=O)(=O)N(Cl)Cl)cc1`
Result string: 0% (inactive)

Query string: Tell me GLP1 secretion stimulation reported for `NCCCC(=O)O`
Result string: 1.6% (inactive)

Query string: Tell me GLP1 secretion stimulation reported for `Fc1ccc(C(c2ccc(F)cc2)N2CCN(C/C=C/c3ccccc3)CC2)cc1`
Result string: 0.7% (inactive)

Query string: Tell me GLP1 secretion stimulation reported for `Nc1nc2c(ncn2COC(CO)CO)c(=O)[nH]1`
Result string: -2% (inactive)

Query string: Tell me GLP1 secretion stimulation reported for `NS(=O)(=O)Cc1noc2ccccc12`
Result string: 2.1% (inactive)

Query string: Tell me GLP1 secretion stimulation reported for `Cc1cc(C(C)(C)C)c(O)c(C)c1CC1=NCCN1`
Result string: 4.3% (inactive)

Query string: Tell me GLP1 secretion stimulation reported for `Nc1ccc(C(=O)O)c(O)c1`
Result string: -6% (inactive)

Query string: Tell me GLP1 secretion stimulation reported for `CCO/C([O-])=N/c1c[n+](N2CCOCC2)no1`
Result string: -0.5% (inactive)

Query string: Tell me GLP1 secretion stimulation reported for `CC[C@@]1(O)C(=O)OCc2c1cc1n(c2=O)Cc2cc3c(CN(C)C)c(O)ccc3nc2-1`
Result string: -4.3% (inactive)
